quantity_kind: melting point

Worked cases, melting point given:
compound | melting point
N#Cc1ccc(NC2CCN(Cc3ccc(C(F)(F)F)cc3)CC2)nn1 [Example E7] | 243.1 °C
N#Cc1ccc(NC2CCN(Cc3cc(C(F)(F)F)cc(C(F)(F)F)c3)CC2)nn1 [Example E11] | 125 °C

Now consider the entry below.
The reported value for N#Cc1ccc(NC2CCN(Cc3cc(C(F)(F)F)ccc3F)CC2)nn1 [Example E12] in terms of melting point is 142.5 °C
